List of pKi tested on Sodium-dependent dopamine transporter (Homo sapiens).
Sequence (Q01959 whole entry): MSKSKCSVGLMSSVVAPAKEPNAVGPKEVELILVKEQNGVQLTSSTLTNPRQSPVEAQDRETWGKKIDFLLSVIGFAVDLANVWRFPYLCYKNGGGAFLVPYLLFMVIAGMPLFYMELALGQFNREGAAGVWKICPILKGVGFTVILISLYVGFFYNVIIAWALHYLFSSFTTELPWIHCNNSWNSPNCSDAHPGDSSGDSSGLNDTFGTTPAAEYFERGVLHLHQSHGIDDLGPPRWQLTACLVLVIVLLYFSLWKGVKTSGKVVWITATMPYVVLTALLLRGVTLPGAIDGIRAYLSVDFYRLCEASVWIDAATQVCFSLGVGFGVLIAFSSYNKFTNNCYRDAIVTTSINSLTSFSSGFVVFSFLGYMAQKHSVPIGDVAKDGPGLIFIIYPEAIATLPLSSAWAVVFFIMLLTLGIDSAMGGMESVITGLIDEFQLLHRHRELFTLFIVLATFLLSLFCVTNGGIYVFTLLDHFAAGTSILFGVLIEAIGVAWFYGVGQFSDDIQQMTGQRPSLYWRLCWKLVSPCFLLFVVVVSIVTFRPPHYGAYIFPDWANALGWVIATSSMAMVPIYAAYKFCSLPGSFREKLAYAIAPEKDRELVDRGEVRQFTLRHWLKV
Kindly note that pKi refers to -log10 of the concentration in mol/L and answer with the value alone.

Looking up COc1cccc(C(CC(C)C)C2CCCCN2)c1 (stereo in doubt; form 2) , I found its pKi recorded as 6.02

Looking up COc1ccc(C(CC(C)C)C2CCCCN2)cc1 (stereo in doubt; form 2) , I found its pKi recorded as 6.11

Looking up CC(=O)C(c1ccccc1)C1CCCCN1 (stereo unspecified) , I found its pKi recorded as 6.43

Looking up CCCCCC(c1ccc(Cl)cc1)C1CCCCN1 (stereo in doubt; form 2) , I found its pKi recorded as 6.06

Looking up CC(C)CC(c1ccc(Cl)c(Cl)c1)C1CCCCN1 (stereo in doubt; form 1) , I found its pKi recorded as 9.00

Looking up CC(C)CC(c1cccc(Cl)c1)C1CCCCN1 (stereo in doubt; form 2) , I found its pKi recorded as 6.85
